tested on: HCV genotype 2b (J8) chimeric HCVcc; experiment: Pan-genotypic activity test using chimeric HCVcc, genotype 2b; type: cell-based; conditions: Hepatitis C virus, read-out: EC50 gt2b
pEC50: −log10 of the molar value.
REPORTED_PROPERTY: pEC50

> print(dat)
                           molecular.string  experimental.value
1  CCOC(=O)c1c(NC(=O)NCc2c(-n3cccc3)sc3c2CCNC3)sc2c1CCCC2        6.00 to 7.00
2  CCOC(=O)c1c(NC(=O)NCc2c(-n3cccc3)sc3c2CCN(CC(C)C)C3)sc2c1CCCC2        6.00 to 7.00
3  CCN1CCc2c(sc(-n3cccc3)c2CNC(=O)Nc2sc3c(c2C(=O)OC(C)(C)C)CCCC3)C1              > 7.00
4  CCOC(=O)c1c(NC(=O)NCc2c(C(F)(F)F)sc3c2CCN(CCN(C)C)C3)sc2c1CCCC2              > 7.00
5  CC(C)(C)OC(=O)c1c(NC(=O)NCc2c(C(F)(F)F)sc3c2CCNC3)sc2c1CCCC2              > 7.00
6  O=C(NCCCN1CCC(N2CCCCC2)CC1)c1ccc(-c2ccc(C(F)(F)F)cc2)cc1        5.00 to 6.00
7  CC(C)OC(=O)c1c(NC(=O)NCc2c(C(F)(F)F)sc3c2CCNC3)sc2c1CCCC2              > 7.00
8  O=C(NCCCN1CCC(N2CCCCC2)CC1)c1ccc(Oc2ccccc2)cc1        6.00 to 7.00
